# tested.system: h P2X3 (Homo sapiens, UniProt P56373)
# Sequence (P56373 whole entry): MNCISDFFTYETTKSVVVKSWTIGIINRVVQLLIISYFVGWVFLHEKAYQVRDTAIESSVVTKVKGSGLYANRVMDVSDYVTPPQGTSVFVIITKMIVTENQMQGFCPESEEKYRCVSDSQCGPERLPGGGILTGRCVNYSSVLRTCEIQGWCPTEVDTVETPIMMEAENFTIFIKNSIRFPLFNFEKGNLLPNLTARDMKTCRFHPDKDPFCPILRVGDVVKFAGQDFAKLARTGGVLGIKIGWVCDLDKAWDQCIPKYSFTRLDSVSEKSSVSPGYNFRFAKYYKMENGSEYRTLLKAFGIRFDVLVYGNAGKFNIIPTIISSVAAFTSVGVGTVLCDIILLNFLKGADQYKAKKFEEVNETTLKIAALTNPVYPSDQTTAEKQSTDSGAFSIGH
# assay.details: In vitro electrophysiology assay for P2X3 (automated whole-cell patch clamp, α,β-MeATP agonist)
# Assay type: cell-based
# test.conditions: Table 2; 800 nM α,β-MeATP, peak current; read-out: h P2X3 (pIC50 range of activity) (converted)
# Protocol: In Vitro Electrophysiology Assay for P2X3 Cells expressing P2X3 receptors were grown according to standard practice and maintained at 37° C. in a 5% humidified CO2 atmosphere. […] One concentration of an antagonist was assessed against a single cell, with different concentrations of the antagonist applied to other cells on the 384 recording substrate. […]
# IC50 annotations

Q: Give the measured IC50 of `Cc1cnc(-c2cc(OCC(F)F)c3ncnc(NCc4ccc(C)nn4)c3c2)nc1` .
A: < 0.316 µM

Q: Give the measured IC50 of `C[C@@H](Nc1ncnc2c(OCC3(C(=O)O)CCCCC3)cc(-c3ccc(F)cc3)cc12)c1cnc(C(F)(F)F)nc1` .
A: 0.316 to 3.16 µM

Q: Give the measured IC50 of `C[C@@H](Nc1ncnc2c(OCC(=O)O)cc(-c3ccc(F)cc3)cc12)c1cnc(C(F)(F)F)nc1` .
A: < 0.316 µM

Q: Give the measured IC50 of `Cc1nc([C@@H](C)Nc2ncnc3c(S(=O)(=O)N4CCC(O)CC4)cc(-c4ccc(F)cc4)cc23)no1` .
A: < 0.316 µM

Q: Give the measured IC50 of `Cc1ccc(CNc2ncnc3c(OC4COC4)cc(-c4ccc(F)cc4)cc23)nn1` .
A: 0.316 to 3.16 µM

Next:
Q: Give the measured IC50 of Cc1nnc(C(C)Nc2ncnc3c(OCC(F)F)cc(-c4ccc(F)cn4)cc23)s1 (single isomer, unassigned; enantiomer 1) [Example 6] .
A: < 0.316 µM

Q: Give the measured IC50 of Cc1nnc(C(C)Nc2ncnc3c(S(=O)(=O)N4CCOCC4)cc(-c4ccc(F)cc4)cc23)s1 (racemic) .
A: < 0.316 µM

* * *

# tested.system: h P2X2/3 (Homo sapiens, UniProt P56373+Q9UBL9)
# Construct: host or cells: cells not described; same protocol as the P2X3 assay
# Sequence (Q9UBL9 whole entry, one chain of several): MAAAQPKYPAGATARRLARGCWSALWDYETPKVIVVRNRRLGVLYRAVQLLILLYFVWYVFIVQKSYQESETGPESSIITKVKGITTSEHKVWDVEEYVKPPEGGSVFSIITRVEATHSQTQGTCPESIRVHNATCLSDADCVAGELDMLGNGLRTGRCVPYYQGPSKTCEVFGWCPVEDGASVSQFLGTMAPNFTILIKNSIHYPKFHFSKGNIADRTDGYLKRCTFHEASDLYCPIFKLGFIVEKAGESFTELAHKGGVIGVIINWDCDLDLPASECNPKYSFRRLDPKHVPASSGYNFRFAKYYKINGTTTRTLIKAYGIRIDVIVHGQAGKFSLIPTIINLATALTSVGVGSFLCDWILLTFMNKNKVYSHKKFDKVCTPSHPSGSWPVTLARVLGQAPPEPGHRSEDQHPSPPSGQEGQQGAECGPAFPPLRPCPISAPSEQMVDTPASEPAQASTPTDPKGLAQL
# assay.details: In vitro electrophysiology assay for P2X2/3 (same protocol, 10 μM ATP agonist)
# Assay type: cell-based
# test.conditions: Table 3, mean current seven seconds after agonist, read-out: h P2X2/3 (pIC50 range of activity) (converted)
Counter-ions that a name gives are not always drawn.
metric: IC50

Q: Give the measured IC50 of `Cc1nc([C@@H](C)Nc2ncnc3c(S(=O)(=O)N4CCC(F)(F)C4)cc(-c4ccc(F)cc4)cc23)no1` .
A: 0.316 to 3.16 µM

Q: Give the measured IC50 of C[C@@H](Nc1ncnc2c(OCC3(C(=O)O)CCNCC3)cc(-c3ccc(F)cc3)cc12)c1cnc(C(F)(F)F)nc1 [Example 47, hydrochloride] .
A: 3.16 to 31.6 µM

Q: Give the measured IC50 of `Cc1ccc([C@@H](C)Nc2ncnc3c(S(=O)(=O)N4CCC(F)(F)C4)cc(-c4ccc(F)cc4)cc23)nn1` .
A: 0.316 to 3.16 µM

Q: Give the measured IC50 of `Cc1ccc(CNc2ncnc3c(OCc4nnc(C5CC5)o4)cc(-c4ccc(F)cc4)cc23)nn1` .
A: 0.316 to 3.16 µM

Q: Give the measured IC50 of `COC(=O)N1CCC(Oc2cc(-c3ccc(F)cc3)cc3c(NCc4ccc(C)nn4)ncnc23)CC1` .
A: 3.16 to 31.6 µM

Q: Give the measured IC50 of `CNS(=O)(=O)c1cc(-c2ccc(F)cc2)cc2c(N[C@H](C)c3noc(C)n3)ncnc12` .
A: 3.16 to 31.6 µM

Next:
Q: Give the measured IC50 of Cc1nnc(C(C)Nc2ncnc3c(OCC(F)F)cc(-c4ccc(F)cn4)cc23)s1 (single isomer, unassigned; enantiomer 1) .
A: 3.16 to 31.6 µM
